Value source: the supplement of paper PMC10724198

# Tested on: Saccharomyces cerevisiae
# test_protocol: protein stability index of tFT-peptide fusion in wild type (PSI (0-1 scale)); higher = more stable (slower turnover)
# condition_info: genetic background: wild type
experimental_readout: protein stability index
When you answer, write just the number.

Worked cases, answers included:
FSMRWTFMYWVN	0.0968
LKIARQKMNHQN	0.277
GLYMCSVGCQFR	0.618
AITLPMCPKLLR	0.643
LKILRQKMNFQN	0.225
GLYMCSVGCWFG	0.456
RSLRVLLPLAFR	0.37
AITLPMCPLKLR	0.549

In the following, a different sequence is considered.
Data request: Query (sequence): `RVVYLSCVACIN` ; field requested: protein stability index
Data returned: 0.0144

* * *

# Test system: Saccharomyces cerevisiae
# test_protocol: protein stability index of tFT-peptide fusion (C-terminal peptide) (PSI (0-1 scale)); higher = more stable (slower turnover)
# condition_info: genetic background: wild type; temperature: 30 C
experimental_readout: protein stability index

Worked cases, answers included:
YRTSLSMANHLL	0.611
VEGGGYVVHSGG	0.657

Data request: Query (sequence): `APRRSPGWGPEG` ; field requested: protein stability index
Data returned: 0.731

Data request: Query (sequence): `SCIFVSSYFFVF` ; field requested: protein stability index
Data returned: 0.251

Data request: Query (sequence): `CRGYRFLSEMKV` ; field requested: protein stability index
Data returned: 0.645

Data request: Query (sequence): `KWQRIKNSPNRK` ; field requested: protein stability index
Data returned: 0.749

Data request: Query (sequence): `APPPPPPAPPLP` ; field requested: protein stability index
Data returned: 0.591

Data request: Query (sequence): `YGGGGWRGVALG` ; field requested: protein stability index
Data returned: 0.65

Data request: Query (sequence): `MFTIYISFVFAF` ; field requested: protein stability index
Data returned: 0.269

Data request: Query (sequence): `PLRTCPCAPLPS` ; field requested: protein stability index
Data returned: 0.689

Data request: Query (sequence): `MTKNKFLTGSRL` ; field requested: protein stability index
Data returned: 0.845

Data request: Query (sequence): `KNPKKMKKVTTK` ; field requested: protein stability index
Data returned: 0.694

Data request: Query (sequence): `LVGRVGAVAGPA` ; field requested: protein stability index
Data returned: 0.691

* * *

As shown below, each of these sequences has a reported protein stability index value.
# Tested on: Saccharomyces cerevisiae
# test_protocol: protein stability index of tFT-peptide fusion in wild type (PSI (0-1 scale)); higher = more stable (slower turnover)
# condition_info: genetic background: wild type
When you answer, write just the number.

Worked cases, answers included:
FSHRWTFRYWVN	0.0512
PSLAASFMRVVG	0.531
PDSRNHLIKLLN	0.125

Data request: Identify the measured protein stability index of `RVTRLDAIYFII` for Saccharomyces cerevisiae.
Data returned: 0.0744

Data request: Identify the measured protein stability index of `LKILNQKMNHQN` for Saccharomyces cerevisiae.
Data returned: 0.395

* * *

# System: Saccharomyces cerevisiae
# test_protocol: protein stability index of tFT-peptide fusion (C-terminal peptide) (PSI (0-1 scale)); higher = more stable (slower turnover)
# condition_info: genetic background: wild type; temperature: 30 C
experimental_readout: protein stability index
When you answer, write just the number.

SPPPPGPLPPPS	0.718
PLPPPSLPPSPS	0.699
SPHPTAPFVSTL	0.68

Data request: Identify the measured protein stability index of `FGRDTDIYLASL` for Saccharomyces cerevisiae.
Data returned: 0.691

Data request: Identify the measured protein stability index of `PPLRPHHPLYHS` for Saccharomyces cerevisiae.
Data returned: 0.687

Data request: Identify the measured protein stability index of `KKSGISSGPNDT` for Saccharomyces cerevisiae.
Data returned: 0.689

Data request: Identify the measured protein stability index of `LRAVRDSLMSQC` for Saccharomyces cerevisiae.
Data returned: 0.681

Data request: Identify the measured protein stability index of `LRRPAFCAFTST` for Saccharomyces cerevisiae.
Data returned: 0.715

Data request: Identify the measured protein stability index of `KHKRDRNIYKVT` for Saccharomyces cerevisiae.
Data returned: 0.679

Data request: Identify the measured protein stability index of `DGVSRSHFQCVS` for Saccharomyces cerevisiae.
Data returned: 0.708

Data request: Identify the measured protein stability index of `WVGGGRAKAKRE` for Saccharomyces cerevisiae.
Data returned: 0.696

Data request: Identify the measured protein stability index of `LGDLVFGLSVWL` for Saccharomyces cerevisiae.
Data returned: 0.684

* * *

As shown below, each of these sequences has a reported protein stability index value.
# System: Saccharomyces cerevisiae
# test_protocol: protein stability index of tFT-peptide fusion (C-terminal peptide) (PSI (0-1 scale)); higher = more stable (slower turnover)
# condition_info: genetic background: das1 deletion; temperature: 37 C
When you answer, write just the number.

Worked cases, answers included:
SWWGDVVWFVVC	0.703
HPLYWRCVVVLN	0.373

Data request: Identify the measured protein stability index of `WFSVFTMSILSR` for Saccharomyces cerevisiae.
Data returned: 0.496

* * *

# System: Saccharomyces cerevisiae
# test_protocol: protein stability index of tFT-peptide fusion (C-terminal peptide) (PSI (0-1 scale)); higher = more stable (slower turnover)
# condition_info: genetic background: wild type; temperature: 30 C
As shown below, each of these sequences has a reported protein stability index value.
When you answer, write just the number.

Worked cases, answers included:
VIASDESSHLSY [YHR127W C-terminal 12 aa]	0.699
HQKTKTLASLSI [NUP49 C-terminal 12 aa]	0.631
PIVHYISDRRTV [ARC15 C-terminal 12 aa]	0.688
IKLLKTHNRMSL [YNL277W-A C-terminal 12 aa]	0.696
NSIVKQFKEIFK [AIM41 C-terminal 12 aa]	0.67

In the following, a different sequence is considered.
Data request: Query (sequence): SPEQLKVSLKWH [SKM1 C-terminal 12 aa] ; field requested: protein stability index
Data returned: 0.699

* * *

# Test system: Saccharomyces cerevisiae
# test_protocol: protein stability index of tFT-peptide fusion (C-terminal peptide) (PSI (0-1 scale)); higher = more stable (slower turnover)
# condition_info: genetic background: wild type; temperature: 30 C
Class field: derived from protein stability index; ranges group A: < 0.2; group B: ≥ 0.2 and < 0.4; group C: ≥ 0.4

Examples with answers:
GSITFFKMVQSG	group C
MFTIYISFVFAF	group B
YCAAVCFWGLYC	group A
FRDRFLRWNLVS	group A
FWSARAVVWWCW	group C

Data request: // return the class label for `LSIGCRCLWGWF`
Data returned: group C

Data request: // return the class label for `VFLFSLCIRLSR`
Data returned: group A

Data request: // return the class label for `LISRLVLVFVIP`
Data returned: group B

Data request: // return the class label for `YMVESVWVLLGT`
Data returned: group C

* * *

# System: Saccharomyces cerevisiae
# test_protocol: protein stability index of tFT-peptide fusion (C-terminal peptide) (PSI (0-1 scale)); higher = more stable (slower turnover)
# condition_info: genetic background: das1 deletion; temperature: 30 C
Param threshold (0.5) applies to protein stability index; output 1 (yes) when value >= threshold, 0 (no) when value < threshold.

TNFVVRLRFVLF	0 (no)
FTEFWFFKQMSV	1 (yes)
GGFLLRGLFLFL	1 (yes)
HSPPVPFPPPTS	1 (yes)
VVVCSLVPLFVL	0 (no)
PLVLPPINLFLV	1 (yes)
SAVLFLLFVYVR	0 (no)
PLRLRCASLFAN	1 (yes)
SWRRCLSSIPVA	0 (no)
SCLSLALLVFFG	0 (no)

Lab note: next sequence to report on.
Data request: Could you verify whether the entry `FTRWLVYCTPLC` shows protein stability index of no less than 0.5?
Data returned: 0 (no)

* * *

# Tested on: Saccharomyces cerevisiae
# test_protocol: protein stability index of tFT-peptide fusion (C-terminal peptide) (PSI (0-1 scale)); higher = more stable (slower turnover)
# condition_info: genetic background: wild type; temperature: 30 C
As shown below, each of these sequences has a reported protein stability index value.
When you answer, write just the number.

Worked cases, answers included:
RVYYPSGVKCRL	0.671
SWPDVCLTSPLS	0.731

Data request: Query (sequence): `KRKKNKEENQTE` ; field requested: protein stability index
Data returned: 0.708

Data request: Query (sequence): `FVWSGVGGSGVG` ; field requested: protein stability index
Data returned: 0.679

Data request: Query (sequence): `PAWVEARWLCRG` ; field requested: protein stability index
Data returned: 0.764

Data request: Query (sequence): `FFAIFSLLLSFT` ; field requested: protein stability index
Data returned: 0.459

Data request: Query (sequence): `LWENVVLVEGGK` ; field requested: protein stability index
Data returned: 0.704

Data request: Query (sequence): `LFCARNGILLSV` ; field requested: protein stability index
Data returned: 0.516

Data request: Query (sequence): `NHTLPGTRSSVW` ; field requested: protein stability index
Data returned: 0.684

Data request: Query (sequence): `AFVLGSWSWWRA` ; field requested: protein stability index
Data returned: 0.715
